The values you see were collected from ChEMBL document CHEMBL5576060.

# Test system: MDA-MB-468
# Assay Details: Antiproliferative activity against human MDA-MB-468 cells assessed as inhibition of cell growth
# Type: functional, cell-based
pIC50: −log10 of the molar value.
Property Name: pIC50

{"Substance Smiles": "O=C1Nc2ccccc2N/C1=C\\C(=O)c1cccc(OCc2ccccc2)c1", "Tested System": "MDA-MB-468", "Val": 5.19}
{"Substance Smiles": "O=C1Nc2ccccc2N/C1=C\\C(=O)c1ccccc1", "Tested System": "MDA-MB-468", "Val": 5.11}

----------
# System: JIMT-1
# Assay Details: Antiproliferative activity against human JIMT-1 cells assessed as inhibition of cell growth
# Type: functional, cell-based
Property Name: IC50 (µM)
I only need the number, in µM, no unit after it.

Would you kindly share the measured IC50 for "O=C1Nc2ccccc2N/C1=C\C(=O)c1cccc(OCc2ccccc2)c1" ?
44.9
